# assayNotes: D9 solubility in the liquors at isolation temperature
# Assay type: physicochemical
# details: crystallisation liquors over suspended solid, 5 °C, organic solvent or mixture, thermodynamic from solid, batch 5; Toluene/MeOH (3:7); seed G; heat T 25; isolation T 5; 10.0 mL/g; SP 11

{"compound": "CCCCCc1cc(OC(=O)c2ccc3ccccc3c2)c2c(c1)OC(C)(C)[C@@H]1CCC(C)=C[C@@H]21 [Form H]", "displayUnit": "mg/mL", "solubility": 71.4}

----------
# assayNotes: Visual solubility of Form B
# Assay type: physicochemical
# details: organic solvent or mixture, thermodynamic from solid; solvent Acetone/MeOH (1:3); 50° C.; read-out: Visual Solubility at 50° C.

{"compound": "CCCCCc1cc(OC(=O)c2ccc3ccccc3c2)c2c(c1)OC(C)(C)[C@@H]1CCC(C)=C[C@@H]21 [Form B]", "solubility": "25 to 40 mg/mL"}

----------
# assayNotes: Gravimetric solubility
# Format: physicochemical
# details: thermodynamic from solid; solvent Water; 50° C.; read-out: Gravimetric Solubility at 50° C.
reportedEndpoint: solubility

{"compound": "CCCCCc1cc(OC(=O)c2ccc3ccccc3c2)c2c(c1)OC(C)(C)[C@@H]1CCC(C)=C[C@@H]21 [Form B]", "recordedMeasurement": "< 1000 µg/mL"}

----------
# assayNotes: D9 solubility in the liquors at isolation temperature
# Type: physicochemical
# details: crystallisation liquors over suspended solid, 25 °C, organic solvent or mixture, thermodynamic from solid, batch 5; Toluene/EtOH (1:9); seed G/H; heat T 55; isolation T 25; 9.9 mL/g; SP 16; Exp 46
# Description: At the end of each experiment, suspensions were equilibrated at the isolation temperature (25 or 5° C.) for at least 18 hours and the solids and liquors separated by centrifugation at the isolation temperature. The Exo/D9/D8 ratio (Exo-D9-THC-naphthoylester impurity/D9-THC-naphthoylester/D8-THC-naphthoylester) was determined in both the isolated solids and the liquors, from which the % Exo-depletion in the isolated solids was calculated. […]

{"compound": "CCCCCc1cc(OC(=O)c2ccc3ccccc3c2)c2c(c1)OC(C)(C)[C@@H]1CCC(C)=C[C@@H]21 [Form H]", "displayUnit": "mg/mL", "solubility": 11.1}

----------
# assayNotes: D9 solubility in the liquors at isolation temperature
# Format: physicochemical
# details: liquors of the equilibrated crystallisation suspension, 25 °C, organic solvent or mixture, thermodynamic from solid, EtOAC/EtOH (2:8); isolation 25 °C; SP 17; 8.0 mL/g; read-out: D9 Solubility at Isolation T
reportedEndpoint: solubility (mg/mL)

{"molecule": "CCCCCc1cc(OC(=O)c2ccc3ccccc3c2)c2c(c1)OC(C)(C)[C@@H]1CCC(C)=C[C@@H]21 [Form H]", "reportedEndpoint": "solubility", "displayUnit": "mg/mL", "recordedMeasurement": 36.2}

----------
# assayNotes: D9 solubility in the liquors at isolation temperature
# Format: physicochemical
# details: MEK/MeOH (3:7), 25 °C, organic solvent or mixture, thermodynamic from solid, batch 5, MEK/MeOH (3:7), seed G, heat T 25, isolation T 25, SP 7, 30.0 mL/g

{"compound": "CCCCCc1cc(OC(=O)c2ccc3ccccc3c2)c2c(c1)OC(C)(C)[C@@H]1CCC(C)=C[C@@H]21 [Form B]", "solubility, mg/mL": 16.8}

----------
# assayNotes: D9 solubility in the liquors at isolation temperature
# Assay type: physicochemical
# details: crystallisation liquors over suspended solid, 25 °C, organic solvent or mixture, thermodynamic from solid, batch 5, Anisole/MeOH (1:9), seed G, heat T 40, isolation T 25, SP 8, 30.0 mL/g
# Method: At the end of each experiment, suspensions were equilibrated at the isolation temperature (25 or 5° C.) for at least 18 hours and the solids and liquors separated by centrifugation at the isolation temperature. The Exo/D9/D8 ratio (Exo-D9-THC-naphthoylester impurity/D9-THC-naphthoylester/D8-THC-naphthoylester) was determined in both the isolated solids and the liquors, from which the % Exo-depletion in the isolated solids was calculated. […]

{"compound": "CCCCCc1cc(OC(=O)c2ccc3ccccc3c2)c2c(c1)OC(C)(C)[C@@H]1CCC(C)=C[C@@H]21 [Form B]", "solubility [µg/mL]": 9600}

----------
# assayNotes: Gravimetric solubility
# Type: physicochemical
# details: 20 °C, organic solvent or mixture, thermodynamic from solid; solvent Acetone/MeOH (1:3); RT; read-out: Gravimetric Solubility at RT
reportedEndpoint: solubility

{"compound": "CCCCCc1cc(OC(=O)c2ccc3ccccc3c2)c2c(c1)OC(C)(C)[C@@H]1CCC(C)=C[C@@H]21 [Form B]", "recordedMeasurement": "~9000 µg/mL"}

----------
# assayNotes: D9 solubility in the liquors at isolation temperature
# Format: physicochemical
# details: DMSO/MeOH (1:9), 25 °C, organic solvent or mixture, thermodynamic from solid, batch 5, DMSO/MeOH (1:9), seed G, heat T 50, isolation T 25, SP 4, 9.4 mL/g
reportedEndpoint: solubility

{"molecule": "CCCCCc1cc(OC(=O)c2ccc3ccccc3c2)c2c(c1)OC(C)(C)[C@@H]1CCC(C)=C[C@@H]21 [Form B]", "recordedMeasurement": "3700 µg/mL"}

----------
# assayNotes: Visual solubility of Form B
# Type: physicochemical
# details: organic solvent or mixture, thermodynamic from solid; solvent Heptane; RT; read-out: Visual Solubility at RT
reportedEndpoint: solubility

{"compound": "CCCCCc1cc(OC(=O)c2ccc3ccccc3c2)c2c(c1)OC(C)(C)[C@@H]1CCC(C)=C[C@@H]21 [Form B]", "recordedMeasurement": "20 to 51 mg/mL"}

----------
# assayNotes: D9 solubility in the liquors at isolation temperature
# Format: physicochemical
# details: crystallisation liquors over suspended solid, 5 °C, organic solvent or mixture, thermodynamic from solid, batch 5, p-Xylene/MeOH (1:9), seed G, heat T 25, isolation T 5, SP 11, 40.0 mL/g
reportedEndpoint: solubility (µg/mL)

{"molecule": "CCCCCc1cc(OC(=O)c2ccc3ccccc3c2)c2c(c1)OC(C)(C)[C@@H]1CCC(C)=C[C@@H]21 [Form B]", "recordedMeasurement": 9200}

----------
# assayNotes: Visual solubility of Form B
# Type: physicochemical
# details: organic solvent or mixture, thermodynamic from solid; solvent IPA:water (9:1); RT; read-out: Visual Solubility at RT

{"compound": "CCCCCc1cc(OC(=O)c2ccc3ccccc3c2)c2c(c1)OC(C)(C)[C@@H]1CCC(C)=C[C@@H]21 [Form B]", "solubility": "< 10000 µg/mL"}

----------
# assayNotes: Visual solubility of Form B
# Format: physicochemical
# details: organic solvent or mixture, thermodynamic from solid; solvent MeOH; RT; read-out: Visual Solubility at RT

{"compound": "CCCCCc1cc(OC(=O)c2ccc3ccccc3c2)c2c(c1)OC(C)(C)[C@@H]1CCC(C)=C[C@@H]21 [Form B]", "solubility": "< 9000 µg/mL"}

----------
# assayNotes: D9 solubility in the liquors at isolation temperature
# Assay type: physicochemical
# details: DMSO/MeOH (1:9), 25 °C, organic solvent or mixture, thermodynamic from solid, batch 5, DMSO/MeOH (1:9), seed D, heat T 50, isolation T 25, SP 2, 8.2 mL/g
reportedEndpoint: solubility (mg/mL)

{"molecule": "CCCCCc1cc(OC(=O)c2ccc3ccccc3c2)c2c(c1)OC(C)(C)[C@@H]1CCC(C)=C[C@@H]21 [Form B]", "reportedEndpoint": "solubility", "recordedMeasurement": 4.1}

----------
# assayNotes: Visual solubility of Form B
# Assay type: physicochemical
# details: organic solvent or mixture, thermodynamic from solid; solvent MeCN; 50° C.; read-out: Visual Solubility at 50° C.
reportedEndpoint: solubility

{"molecule": "CCCCCc1cc(OC(=O)c2ccc3ccccc3c2)c2c(c1)OC(C)(C)[C@@H]1CCC(C)=C[C@@H]21 [Form B]", "recordedMeasurement": "25 to 50 mg/mL"}

----------
# assayNotes: D9 solubility in the liquors at isolation temperature
# Type: physicochemical
# details: 1,4-Dioxane/MeOH (1:9), 25 °C, organic solvent or mixture, thermodynamic from solid, batch 5, 1,4-Dioxane/MeOH (1:9), seed E/G, heat T 50, isolation T 25, SP 3, 4.8 mL/g

{"compound": "CCCCCc1cc(OC(=O)c2ccc3ccccc3c2)c2c(c1)OC(C)(C)[C@@H]1CCC(C)=C[C@@H]21 [Form B]", "solubility, µg/mL": 6000}

----------
# assayNotes: Visual solubility of Form B
# Format: physicochemical
# details: organic solvent or mixture, thermodynamic from solid; solvent IPA; 50° C.; read-out: Visual Solubility at 50° C.

{"compound": "CCCCCc1cc(OC(=O)c2ccc3ccccc3c2)c2c(c1)OC(C)(C)[C@@H]1CCC(C)=C[C@@H]21 [Form B]", "solubility": "25 to 50 mg/mL"}

----------
# assayNotes: D9 solubility in the liquors at isolation temperature
# Type: physicochemical
# details: Cyclohexanone/MeOH (1:9), 25 °C, organic solvent or mixture, thermodynamic from solid, batch 5, Cyclohexanone/MeOH (1:9), seed G/H, heat T 60, isolation T 25, SP 12, 10.0 mL/g

{"compound": "CCCCCc1cc(OC(=O)c2ccc3ccccc3c2)c2c(c1)OC(C)(C)[C@@H]1CCC(C)=C[C@@H]21 [Form B]", "displayUnit": "µg/mL", "solubility": 7600}
